# tested system: Phosphatidylinositol 4,5-bisphosphate 3-kinase catalytic subunit beta isoform (Homo sapiens, UniProt P42338)
# Sequence (P42338 whole entry, canonical isoform): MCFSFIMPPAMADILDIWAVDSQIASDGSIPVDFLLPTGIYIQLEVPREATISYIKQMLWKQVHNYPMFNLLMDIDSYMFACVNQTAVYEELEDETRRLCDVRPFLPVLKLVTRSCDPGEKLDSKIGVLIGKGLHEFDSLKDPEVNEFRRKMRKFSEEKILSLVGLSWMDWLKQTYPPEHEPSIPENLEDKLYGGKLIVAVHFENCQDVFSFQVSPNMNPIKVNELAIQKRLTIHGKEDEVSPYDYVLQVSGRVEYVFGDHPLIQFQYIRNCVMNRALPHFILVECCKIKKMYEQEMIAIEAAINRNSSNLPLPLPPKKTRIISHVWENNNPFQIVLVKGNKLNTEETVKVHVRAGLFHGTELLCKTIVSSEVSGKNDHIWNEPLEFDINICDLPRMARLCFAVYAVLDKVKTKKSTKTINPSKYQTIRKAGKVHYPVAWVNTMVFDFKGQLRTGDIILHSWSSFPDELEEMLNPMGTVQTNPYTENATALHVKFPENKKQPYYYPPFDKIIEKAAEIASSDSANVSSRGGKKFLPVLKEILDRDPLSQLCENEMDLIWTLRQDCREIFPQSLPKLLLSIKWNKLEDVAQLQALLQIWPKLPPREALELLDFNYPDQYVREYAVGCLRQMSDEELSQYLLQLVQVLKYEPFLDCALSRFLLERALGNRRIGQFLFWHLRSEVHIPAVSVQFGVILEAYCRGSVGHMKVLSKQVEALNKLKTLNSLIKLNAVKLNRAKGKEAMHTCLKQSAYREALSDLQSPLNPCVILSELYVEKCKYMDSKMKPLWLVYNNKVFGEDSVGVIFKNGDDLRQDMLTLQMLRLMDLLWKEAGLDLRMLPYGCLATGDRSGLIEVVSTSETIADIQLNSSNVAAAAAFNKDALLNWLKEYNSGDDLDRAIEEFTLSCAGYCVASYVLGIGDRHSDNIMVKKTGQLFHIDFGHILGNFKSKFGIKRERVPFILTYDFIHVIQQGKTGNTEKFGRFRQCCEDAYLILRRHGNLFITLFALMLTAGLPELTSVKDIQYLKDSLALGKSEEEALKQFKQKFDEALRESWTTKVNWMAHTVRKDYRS
# method summary: Inhibition of N-terminal 6xHis-tagged recombinant, full length human PI3Kbeta by ADP-Glo assay
measurement name: IC50

Worked cases, IC50 given:
COc1cccc2c1nc(C(F)F)n2-c1nc(N2CCOCC2)cc(N2CCN(C(=S)SCC(=O)N(C)C)CC2)n1 : > 50 nM
COc1cccc2c1nc(C(F)F)n2-c1nc(N2CCOCC2)cc(N2CCN(C(=S)SCC(=O)N3CCOCC3)CC2)n1 : > 50 nM

From here, focus on the item given below.
Exam item: For the molecule shown here, "COc1cccc2c1nc(C(F)F)n2-c1nc(N2CCOCC2)nc(N2CCN(C(=S)SCC(=O)N3CCN(S(C)(=O)=O)CC3)CC2)n1" , give the reported IC50.
Marked response: > 50 nM

====

# tested system: Phosphatidylinositol 4,5-bisphosphate 3-kinase catalytic subunit alpha isoform (Homo sapiens)
# method summary: Inhibition of N-terminal GST-fused full-length human PI3Kalpha (1 to 1068 residues) expressed in baculovirus expression system using PIP2 as substrate incubated for 1 hr in presence of ATP by ADP-Glo assay
measurement name: IC50 (µM)
Use µM as the unit, but write only the number.

CCN(CC)CCSC(=S)N1CCN(c2nc(N3CCOCC3)nc(-n3c(C(F)F)nc4c(OC)cccc43)n2)CC1 : 0.038
COc1cccc2c1nc(C(F)F)n2-c1nc(N2CCOCC2)cc(N2CCN(C(=S)SCC(N)=O)CC2)n1 : 0.0025
COc1cccc2c1nc(C(F)F)n2-c1nc(N2CCOCC2)cc(N2CCN(C(=S)SCC(=O)N(C)C)CC2)n1 : 0.0018

From here, focus on the item given below.
Exam item: For the compound shown here, "COc1cccc2c1nc(C(F)F)n2-c1nc(N2CCOCC2)nc(N2CCN(C(=S)SCCN3CCCC3)CC2)n1" , give the reported IC50.
Marked response: 0.02

====

# tested system: Phosphatidylinositol 4,5-bisphosphate 3-kinase catalytic subunit alpha isoform (Homo sapiens, UniProt P42336)
# Sequence (P42336 whole entry, the tested form may be a part, canonical isoform): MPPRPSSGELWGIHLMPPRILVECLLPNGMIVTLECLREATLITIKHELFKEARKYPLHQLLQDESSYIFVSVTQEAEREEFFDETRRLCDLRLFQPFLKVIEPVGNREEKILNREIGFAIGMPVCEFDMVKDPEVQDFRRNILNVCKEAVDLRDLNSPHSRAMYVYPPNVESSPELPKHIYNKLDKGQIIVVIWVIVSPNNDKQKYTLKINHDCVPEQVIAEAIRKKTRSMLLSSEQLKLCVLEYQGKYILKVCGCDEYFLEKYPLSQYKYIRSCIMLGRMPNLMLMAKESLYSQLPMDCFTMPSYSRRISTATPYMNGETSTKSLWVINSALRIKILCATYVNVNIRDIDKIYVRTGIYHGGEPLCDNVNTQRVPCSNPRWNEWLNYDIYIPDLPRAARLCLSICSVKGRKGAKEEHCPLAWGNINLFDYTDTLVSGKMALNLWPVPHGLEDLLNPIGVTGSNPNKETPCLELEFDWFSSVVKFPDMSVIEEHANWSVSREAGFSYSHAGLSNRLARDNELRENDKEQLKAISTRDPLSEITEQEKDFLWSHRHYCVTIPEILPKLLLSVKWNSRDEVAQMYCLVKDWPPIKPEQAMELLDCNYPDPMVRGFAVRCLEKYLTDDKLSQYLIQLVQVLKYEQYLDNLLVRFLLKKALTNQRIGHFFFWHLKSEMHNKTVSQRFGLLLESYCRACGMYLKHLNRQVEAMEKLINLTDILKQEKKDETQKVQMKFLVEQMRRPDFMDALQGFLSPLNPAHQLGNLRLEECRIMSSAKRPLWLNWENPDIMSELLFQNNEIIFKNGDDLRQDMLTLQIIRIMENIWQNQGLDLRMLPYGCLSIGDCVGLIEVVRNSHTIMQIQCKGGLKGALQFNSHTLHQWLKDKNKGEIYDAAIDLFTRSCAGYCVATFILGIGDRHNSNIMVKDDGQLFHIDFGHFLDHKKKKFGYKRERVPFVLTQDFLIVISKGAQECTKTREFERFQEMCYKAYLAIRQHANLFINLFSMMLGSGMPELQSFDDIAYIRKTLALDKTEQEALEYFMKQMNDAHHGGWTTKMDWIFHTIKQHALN
# method summary: Inhibition of N-terminal GST-fused full-length human PI3Kalpha (1 to 1068 residues) expressed in baculovirus expression system using PIP2 as substrate incubated for 1 hr in presence of ATP by ADP-Glo assay
Below is a list of entries, each paired with its recorded log10 IC50 value.
Transform log10 | Measure IC50 | Unit nM

Worked cases, log10 IC50 given:
COc1cccc2c1nc(C(F)F)n2-c1nc(N2CCOCC2)nc(N2CCN(C(=S)SCCN3CCCCC3)CC2)n1 : 1.62
COc1cccc2c1nc(C(F)F)n2-c1nc(N2CCOCC2)cc(N2CCN(C(=S)SCCN(C)C)CC2)n1 : 1.53
COCCSC(=S)N1CCN(c2cc(N3CCOCC3)nc(-n3c(C(F)F)nc4c(OC)cccc43)n2)CC1 : 1.23
COc1cccc2c1nc(C(F)F)n2-c1nc(N2CCOCC2)nc(N2CCN(C(=S)SCCN(C)C)CC2)n1 : 1.80
COc1cccc2c1nc(C(F)F)n2-c1nc(N2CCOCC2)nc(N2CCN(C(=S)SCC(=O)N3CCN(C4CCCC4)CC3)CC2)n1 : 0.40

Exam item: For the molecule shown here, "COc1cccc2c1nc(C(F)F)n2-c1nc(N2CCOCC2)nc(N2CCN(C(=S)SCCN3CCN(C)CC3)CC2)n1" , give the reported log10 IC50.
Marked response: 0.96

Exam item: For the molecule shown here, "COc1cccc2c1nc(C(F)F)n2-c1nc(N2CCOCC2)nc(N2CCN(C(=S)SCC(=O)NC3CCCCC3)CC2)n1" , give the reported log10 IC50.
Marked response: 0.71

Exam item: For the molecule shown here, "COc1cccc2c1nc(C(F)F)n2-c1nc(N2CCOCC2)nc(N2CCN(C(=S)SCC(=O)N3CCN(C)CC3)CC2)n1" , give the reported log10 IC50.
Marked response: 0.15
